Test system: R275C/beta2Delta
Experiment: modulators of BK channel variants, profiling panel, selectivity assay, cell-based, U2OS BacMam, thallium flux, beta subunits (AID 1259406);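 note: initial slope of Thallos dye fluorescence rise after thallium is added; log ratio against the mean of 0.3% DMSO vehicle wells on the same plate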
Details: at 30 µM
Overview of reported log fold change Tl+ flux across a group of molecules:
MEASURE: log fold change Tl+ flux

• CCOC(=O)c1ccc(N2CCOCC2)c(N=Cc2cc(Cl)cc(Cl)c2O)c1 = 0.0906
• CC(=O)OCC(=O)C12OC3(CCCC3)OC1CC1C3CCC4=CC(=O)C=CC4(C)C3(F)C(O)CC12C (stereo not given) = 0.0763
• O=C(Cn1nnc(N2CCCC2)n1)NN=Cc1ccc(Cl)cc1 = -0.0395
• O=C(c1ncoc1-c1ccccc1)N(Cc1ccccn1)Cc1ccccn1 = 0.0379
• O=C(Nc1ccc(OC(F)(F)F)cc1)OC1CN(C(c2ccccc2)c2ccccc2)C1 = -0.0123

====

Target: L-lactate dehydrogenase (Plasmodium falciparum (isolate CDC / Honduras))
Experiment: PfLDH activity inhibition – cell lysate, 3D7 strain, counter-screen for P. falciparum growth inhibition project (AID 2304);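 note: 0% = vehicle and 100% = reference inhibitor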
Conditions: P. falciparum 3D7 crude extract, LDH APAD/NBT absorbance; at 2 µM; stronger effect = higher value
MEASURE: inhibition (%)

- Cc1ccc(Nc2nc3cc(N(C)c4ccnc(Nc5cccc(CCS(C)(=O)=O)c5)n4)ccc3n2C)cc1: 4
- COc1cc2nc(NCC3CCN(c4nc(N)c5cc(OC)c(OC)cc5n4)CC3)nc(N)c2cc1OC: -2
- CCN(CC)C(=O)C(=O)c1c[nH]c2ccc(Cl)cc12: 0
- NC(=O)c1sc(-n2cnc3ccc(C(=O)NCCN4CCOCC4)cc32)cc1OCc1ccccc1C(F)(F)F: 1
- CC(C)(CN)c1nc(-c2ccc(Cl)c(O)c2)c(-c2ccncc2)[nH]1: 0
- O=C(/C=C/c1ccc(Cl)c(Cl)c1)NCCCCCCN1CCCN(C(=O)Nc2cccc(C(F)(F)F)c2)CC1: -3
- NCCNS(=O)(=O)c1ccc(-c2ccnc3[nH]c(-c4ccncc4)cc23)cc1: 3
- c1cc(COc2ccc(C3=NCCN3)cc2)nc(COc2ccc(C3=NCCN3)cc2)c1: -2
- c1cc(CNC2CCN(CC3CCCCC3)CC2)cc(-n2ccnc2)c1: 1

====

Catalogue of growth inhibition readings, one per entry.
Test: antimalarial activity against Dd2 strain (AID 2302);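 note: 0% = DMSO untreated growth and 100% = chloroquine plus artemisinin killed control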
Conditions: P. falciparum Dd2 in RBCs, LDH growth readout, 72 h; at 2 µM; stronger effect = higher value
MEASURE: growth inhibition (%)

• O=C(Nc1cccc(Cl)c1)c1cnc(N2CCN(c3ccncc3)CC2)c(Cl)c1 = 97
• CC(C)(C)c1ccc(-c2nc3c(ccc4nc(N)nc(N)c43)[nH]2)cc1 = 101
• Cc1cc(=O)c(-c2ccc(Oc3ccc(OC(F)(F)F)cc3)cc2)c(C)[nH]1 = 61
• CCn1c(-c2nonc2N)nc2c(-c3ccc(CO)o3)ncc(OCCCN)c21 = 97
• COc1ccc(C2C(C(=O)OC3CCCCC3)=C(C)NC3=C2C(=O)CCC3)cc1Br (stereo not given) = 94

====

Assay: HepG2 cytotoxicity, primary screen, cytotoxicity control for P. falciparum antimalarial project, cell-based, ATP luminescence (AID 2303);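 note: 0% = DMSO wells and 100% = digitonin-killed cells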
Settings: HepG2 viability, 24-48 h, at 10 µM, stronger effect = higher value
MEASURE: inhibition (%)

* Oc1cc(-c2nc(C3(CNCc4ccc(Cl)cc4)CCCCC3)[nH]c2-c2ccncc2)ccc1Cl | 35
* CC(=O)Nc1cccc(Nc2c3ccccc3nc3ccccc23)c1 | 31
* Cc1cccc2[nH]c(-c3ccc(-c4cccc(NC(=O)C(=O)c5cccn5C)c4)cc3)nc12 | 30
* CCc1c(C(=O)NC2CCC(N3CCC(c4ccccc4C)CC3)CC2)[nH]c2ccc(Br)cc12 (centres undefined) | 81
* CCn1c(-c2nonc2N)nc2c(-c3cccc(NC(=O)NCc4ccccc4)c3)ncc(OCCCN)c21 | 5
* COc1ccc(C(=O)N2CCC3(CC2)C(=O)N(CC(=O)NCC2CCCCC2)CN3c2ccccc2)c(OC)c1 | 6
* CCCC(=O)Nc1ccc(OCCCCN(Cc2ccccc2C(F)(F)F)c2ccc(C(F)(F)F)c(C#N)c2)cc1 | 6
* CC(C)CC1(C(=O)OC(C)(C)C)CC(C(=O)OC(C)(C)C)C(c2cccs2)N1C(=O)c1ccc(C(C)(C)C)cc1 (centres undefined) | 21
* COc1ccc(-c2cnc3[nH]cc(-c4ccncc4)c3c2)cc1OC | 52
